target_of_assay: Androgen receptor (Homo sapiens)
Sequence (P10275 whole entry): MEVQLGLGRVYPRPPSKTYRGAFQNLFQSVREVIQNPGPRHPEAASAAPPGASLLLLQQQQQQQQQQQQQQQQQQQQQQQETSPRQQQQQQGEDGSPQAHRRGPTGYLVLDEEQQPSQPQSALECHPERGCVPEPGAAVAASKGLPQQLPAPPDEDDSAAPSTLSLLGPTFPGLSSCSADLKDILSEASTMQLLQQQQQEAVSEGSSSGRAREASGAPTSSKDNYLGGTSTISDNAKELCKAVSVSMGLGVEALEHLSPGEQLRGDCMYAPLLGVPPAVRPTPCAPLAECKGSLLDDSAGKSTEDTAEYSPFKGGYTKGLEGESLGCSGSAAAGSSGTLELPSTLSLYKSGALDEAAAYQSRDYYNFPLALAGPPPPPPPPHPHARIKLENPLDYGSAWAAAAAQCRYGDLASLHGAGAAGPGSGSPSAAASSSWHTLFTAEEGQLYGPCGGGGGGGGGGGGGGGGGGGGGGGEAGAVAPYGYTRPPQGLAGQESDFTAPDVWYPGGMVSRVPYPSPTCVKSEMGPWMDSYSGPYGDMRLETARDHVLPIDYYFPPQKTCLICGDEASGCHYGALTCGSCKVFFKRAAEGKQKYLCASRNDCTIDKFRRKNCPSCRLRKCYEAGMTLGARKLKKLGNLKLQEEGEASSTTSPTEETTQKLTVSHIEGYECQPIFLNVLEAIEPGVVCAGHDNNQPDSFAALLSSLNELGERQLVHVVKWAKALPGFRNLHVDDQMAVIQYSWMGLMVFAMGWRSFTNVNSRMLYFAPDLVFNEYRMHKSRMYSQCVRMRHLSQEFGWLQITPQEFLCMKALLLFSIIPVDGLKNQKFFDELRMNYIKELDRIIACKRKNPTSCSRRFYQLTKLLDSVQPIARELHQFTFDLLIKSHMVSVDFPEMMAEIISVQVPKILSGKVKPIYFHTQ
protocol_summary: Antagonist activity at androgen receptor in human MDA-MB-453 cells assessed as inhibition of testosterone-induced transactivation
So I've got a bunch of molecules here, and I need their IC50 values.
Respond numerically; units are nM and should not be typed.

q: Supply measured IC50 of "CNC(=O)[C@@]12[C@@H](CN(c3ccc(C#N)c(C(F)(F)F)c3)S1(=O)=O)[C@H]1C[C@H](F)[C@@H]2C1" in your reply.
a: 57

q: Supply measured IC50 of "N#Cc1ccc(N2C[C@H]3[C@H]4CC[C@H](C4)[C@H]3S2(=O)=O)cc1C(F)(F)F" in your reply.
a: 130

q: Supply measured IC50 of "C[C@@]12[C@@H]3CC[C@@H](C3)[C@@H]1CN(c1ccc(C#N)c(C(F)(F)F)c1)S2(=O)=O" in your reply.
a: 73

q: Supply measured IC50 of "N#Cc1ccc(N2C[C@@H]3[C@@H]([C@@H]4C=C[C@H]3C4)S2(=O)=O)cc1C(F)(F)F" in your reply.
a: 219

q: Supply measured IC50 of "C[C@@]12[C@@H]3CC[C@@H](C3=O)[C@@H]1CN(c1ccc(C#N)c(C(F)(F)F)c1)S2(=O)=O" in your reply.
a: 67

q: Supply measured IC50 of C[C@@]12[C@@H]3CC[C@@H](C3O)[C@@H]1CN(c1ccc(C#N)c(C(F)(F)F)c1)S2(=O)=O (stereo in doubt; 17) in your reply.
a: 327

q: Supply measured IC50 of "C[C@@]12[C@@H](CN(c3ccc(C#N)c(C(F)(F)F)c3)S1(=O)=O)[C@H]1C[C@H](O)[C@@H]2C1" in your reply.
a: 106
